- System: PCSK9 (Homo sapiens, UniProt Q8NBP7, G670E/V474I)
- Sequence (Q8NBP7 31-152): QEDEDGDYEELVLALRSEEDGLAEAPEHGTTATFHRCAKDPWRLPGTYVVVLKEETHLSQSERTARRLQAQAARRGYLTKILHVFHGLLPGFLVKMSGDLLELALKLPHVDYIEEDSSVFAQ
- Sequence (Q8NBP7 153-692 V474I/G670E): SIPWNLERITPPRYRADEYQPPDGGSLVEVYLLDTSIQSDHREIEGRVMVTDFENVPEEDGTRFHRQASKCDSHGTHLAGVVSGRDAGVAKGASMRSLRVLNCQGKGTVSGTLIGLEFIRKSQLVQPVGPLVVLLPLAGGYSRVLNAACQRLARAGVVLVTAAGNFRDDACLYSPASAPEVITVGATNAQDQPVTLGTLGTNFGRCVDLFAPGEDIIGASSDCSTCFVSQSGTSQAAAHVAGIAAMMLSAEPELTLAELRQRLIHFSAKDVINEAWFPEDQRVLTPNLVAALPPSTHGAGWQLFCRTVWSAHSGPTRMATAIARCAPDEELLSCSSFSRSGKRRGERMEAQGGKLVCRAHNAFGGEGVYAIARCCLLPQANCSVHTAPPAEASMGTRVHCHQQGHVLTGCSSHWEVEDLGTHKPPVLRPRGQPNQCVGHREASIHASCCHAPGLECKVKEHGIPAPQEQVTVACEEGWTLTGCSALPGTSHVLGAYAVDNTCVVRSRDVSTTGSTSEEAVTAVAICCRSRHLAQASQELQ
- Experiment description: cell-based
pIC50: −log10 of the molar value.
Classification field: T = pIC50 at or over 7; F = pIC50 under 7.

Smiles data: O=c1ccc(-c2nn[nH]n2)cn1-c1ccc(N[C@H]2CC[C@H](Nc3nc4cccnc4[nH]3)C2)nc1
Discrete label: F

Smiles data: O=c1ccccn1-c1ccc(N[C@H]2CC[C@H](Nc3nc4cc(OC(F)F)cnc4[nH]3)C2)nc1
Discrete label: T

Smiles data: COc1ccc(=O)n(-c2ccc(N[C@H]3CC[C@H](Nc4nc5cccnc5o4)C3)nc2)c1
Discrete label: F

Smiles data: N#Cc1ccc(=O)n(-c2ccc(N[C@H]3CC[C@H](Nc4nc5cccnc5s4)C3)nc2)c1
Discrete label: F

Smiles data: O=c1c2sccc2ccn1-c1ccc(N[C@H]2CC[C@H](Nc3nc4cccnc4s3)C2)nc1
Discrete label: T

Smiles data: N#Cc1ccc(=O)n(-c2ccc(N[C@H]3CC[C@H](Nc4nc5cccnc5[nH]4)C3)nc2)c1
Discrete label: F

Smiles data: O=c1ccccn1-c1ccc(N[C@H]2CC[C@H](Nc3nc4c(Cl)c(Cl)cnc4[nH]3)C2)nc1
Discrete label: F

Smiles data: Cc1ncc(-c2ccc(=O)n(-c3ccc(N[C@H]4CC[C@H](Nc5nc6cc(Br)cnc6[nH]5)C4)nc3)c2)cn1
Discrete label: F

Smiles data: Cn1c(=O)n(-c2ccc(N[C@H]3CC[C@H](Nc4nc5cccnc5[nH]4)C3)nc2)c2ccccc21
Discrete label: T

Smiles data: O=c1ccc(OC(F)F)cn1-c1ccc(N[C@H]2CC[C@H](Nc3nc4cccnc4o3)C2)nc1
Discrete label: F

Smiles data: O=c1cccnn1-c1ccc(N[C@H]2CC[C@H](Nc3nc4cccnc4[nH]3)C2)nc1
Discrete label: F

Smiles data: O=c1ccccn1-c1ccc(N[C@H]2CC[C@H](Nc3nc4cc(OC(F)(F)F)cnc4[nH]3)C2)nc1
Discrete label: T
